These data points were gathered from patent US20060035920A1.

Provide the reported IC50 of each item.
- Tgt: Recombinant human Chk1 (GST-Chk1) (Homo sapiens)
- Construct: made in house; host or cells: insect cells (baculovirus, Bac-to-Bac system)
- Protocol notes: Chk1 DELFIA Kinase Assay
- Format: biochemical
- Test parameters: GST-Chk1 kinase assay, bound given in nM

1. CCn1c(=O)c2c(CCOC)[nH]nc2c2cc(C#CCN3CCCC3)ccc21 [Compound I-14] : < 500 nM
2. CCn1c(=O)c2c(C)[nH]nc2c2cc(CCCN3CCCC3)ccc21 [Compound I-54] : > 500 nM
3. CCn1c(=O)c2c(C)[nH]nc2c2cc(/C=C/CN3CCCC3)ccc21 [Compound I-25] : < 500 nM

# context switch: different compound, same IC50
Entry CCn1c(=O)c2c(C)[nH]nc2c2cc(-c3ccc(CN4CCc5ccccc5C4)s3)ccc21 [Compound I-48] : reported IC50 = ?
> 500 nM

====

For each entry below, report its IC50 value.
- Tgt: Recombinant human Chk1 (GST-Chk1) (Homo sapiens, UniProt O14757)
- Construct: made in house; host or cells: insect cells (baculovirus, Bac-to-Bac system)
- Sequence (O14757 1-476): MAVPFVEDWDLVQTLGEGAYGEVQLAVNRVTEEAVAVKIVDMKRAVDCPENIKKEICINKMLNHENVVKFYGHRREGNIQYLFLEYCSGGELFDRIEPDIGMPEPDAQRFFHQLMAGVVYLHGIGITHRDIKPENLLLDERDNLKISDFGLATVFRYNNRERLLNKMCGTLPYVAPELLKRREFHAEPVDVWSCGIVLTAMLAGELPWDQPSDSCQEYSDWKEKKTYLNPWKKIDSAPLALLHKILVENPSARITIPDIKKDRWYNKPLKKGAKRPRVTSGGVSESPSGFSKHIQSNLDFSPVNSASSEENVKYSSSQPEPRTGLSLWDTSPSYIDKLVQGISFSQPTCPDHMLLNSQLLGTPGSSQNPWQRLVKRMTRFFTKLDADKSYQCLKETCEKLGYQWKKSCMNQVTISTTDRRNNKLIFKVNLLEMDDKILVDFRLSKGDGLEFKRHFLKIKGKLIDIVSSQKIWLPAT
- Protocol notes: Chk1 DELFIA Kinase Assay
- Type: biochemical
- Test parameters: GST-Chk1 kinase assay, bound given in nM

Some compounds with recorded IC50:
1) Cc1[nH]nc2c1c(=O)n(CC(F)F)c1ccc(C#CCN3CCCC3)cc21 [Compound I-4] : < 500 nM
2) CCCn1c(=O)c2c(C)[nH]nc2c2cc(-c3ccc(CN(C)C)s3)ccc21 [Compound I-56] : < 500 nM
3) CCn1c(=O)c2c(C)[nH]nc2c2cc(C#CCN(C(C)C)C(C)C)ccc21 [Compound I-36] : < 500 nM
4) CCn1c(=O)c2c(C)[nH]nc2c2cc(-c3ccc(CN4CCCC4)s3)ccc21 [Compound I-53] : < 500 nM
5) CCN(CC)Cc1ccc(-c2ccc3c(c2)c2n[nH]c(C)c2c(=O)n3CC)s1 [Compound I-46] : < 500 nM

For every listed record, write down its IC50.
1. CCN(CC)CCc1ccc(-c2ccc3c(c2)c2n[nH]c(C)c2c(=O)n3CC)s1 [Compound I-82]
2. Cc1[nH]nc2c1c(=O)n(CC1CC1)c1ccc(C#CCN3CCCC3)cc21 [Compound I-6]

1. < 500 nM
2. < 500 nM
